Recorded values, source PubChem BioAssay AID1963961.

# Tested on: K98450-129-R-PDC multicell spheroids, viability;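 also: spheroids exposed to agents for seven days before read-out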
# Test summary: Anticancer human tumor K98450-129-R-PDC patient-derived colon adenocarcinoma cell line growth inhibition [PI3K]
# Test conditions: second compound 0.1 µM; first compound 0.01 µM; hits give low values
Measurement type: viability, T/C (%)

* Cn1ncnc1[C@H]1c2n[nH]c(=O)c3cc(F)cc(c23)N[C@@H]1c1ccc(F)cc1 + Cc1nc(NC(=O)N2CCCC2C(N)=O)sc1-c1ccnc(C(C)(C)C(F)(F)F)c1 | 100
* CC(C)n1nc(-c2ccc3oc(N)nc3c2)c2c(N)ncnc21 + CC(Nc1ncnc2nc[nH]c12)c1cc2cccc(Cl)c2c(=O)n1-c1ccccc1 | 111
* CCN1CCN(Cc2ccc(Nc3ncc(F)c(-c4cc(F)c5nc(C)n(C(C)C)c5c4)n3)nc2)CC1 + CC(Nc1ncnc2nc[nH]c12)c1cc2cccc(Cl)c2c(=O)n1-c1ccccc1 | 107
* Cn1ncnc1[C@H]1c2n[nH]c(=O)c3cc(F)cc(c23)N[C@@H]1c1ccc(F)cc1 + CC(Nc1ncnc2nc[nH]c12)c1cc2cccc(Cl)c2c(=O)n1-c1ccccc1 | 107
* Cn1ncnc1[C@H]1c2n[nH]c(=O)c3cc(F)cc(c23)N[C@@H]1c1ccc(F)cc1 + COc1c(OCCCN2CCOCC2)ccc2c3n(c(=NC(=O)c4cnc(N)nc4)nc12)CCN3 | 89.8
* Cn1ncnc1[C@H]1c2n[nH]c(=O)c3cc(F)cc(c23)N[C@@H]1c1ccc(F)cc1 + CC(Nc1ccc2c(c1)OCCn1cc(N3C(=O)OCC3C(F)F)nc1-2)C(N)=O | 95.1
* CCN1CCN(Cc2ccc(Nc3ncc(F)c(-c4cc(F)c5nc(C)n(C(C)C)c5c4)n3)nc2)CC1 + COc1c(OCCCN2CCOCC2)ccc2c3n(c(=NC(=O)c4cnc(N)nc4)nc12)CCN3 | 64.9
* CCN1CCN(Cc2ccc(Nc3ncc(F)c(-c4cc(F)c5nc(C)n(C(C)C)c5c4)n3)nc2)CC1 + Cc1nc(NC(=O)N2CCCC2C(N)=O)sc1-c1ccnc(C(C)(C)C(F)(F)F)c1 | 95.9
* CC(=O)c1c(C)c2cnc(Nc3ccc(N4CCNCC4)cn3)nc2n(C2CCCC2)c1=O + COc1c(OCCCN2CCOCC2)ccc2c3n(c(=NC(=O)c4cnc(N)nc4)nc12)CCN3 | 67
* CCN1CCN(Cc2ccc(Nc3ncc(F)c(-c4cc(F)c5nc(C)n(C(C)C)c5c4)n3)nc2)CC1 + CC(Nc1ccc2c(c1)OCCn1cc(N3C(=O)OCC3C(F)F)nc1-2)C(N)=O | 96.8
* CC(=O)c1c(C)c2cnc(Nc3ccc(N4CCNCC4)cn3)nc2n(C2CCCC2)c1=O + CC(Nc1ccc2c(c1)OCCn1cc(N3C(=O)OCC3C(F)F)nc1-2)C(N)=O | 94.8
